subject.of.test: recombinant human Flag-tagged PARP7 (amino acids 456-657) (Homo sapiens, UniProt Q7Z3E1)
Construct: recombinant human Flag-tagged PARP7 (amino acids 456-657)
assay.protocol: PARP7 biochemical DELFIA assay (auto-MARylation)
assay.setup: DELFIA readout, IC50 class
IC50 values for the compounds below.

Would you please look over these solved cases?
N#Cc1ccc(N2CCN(S(=O)(=O)c3cccc(Cc4cccc5c(=O)[nH]ncc45)c3)CC2)nc1 | 1000 to 10000 nM
N#Cc1cnc(N2CCN(C(=O)CCOCCn3nc(C(F)(F)F)c4c(=O)[nH]ncc43)CC2)s1 | ≤ 100 nM
O=C1NCCc2c(NCCOCC(=O)N3CCN(c4ncc(C(F)(F)F)cn4)CC3)cccc21 | 1000 to 10000 nM
CC(COCCC(=O)N1CCN(c2cc(C(F)(F)F)[nH]n2)CC1)n1nc(C(F)(F)F)c2c(=O)[nH]ncc21 (stereo not shown) | ≤ 100 nM
O=C(CCOCCc1cc(F)cc2c(=O)[nH]ncc12)N1CCN(c2ncc(C(F)(F)F)cn2)CC1 | ≤ 100 nM

Problem: Entry O=C(CCOCCn1cc(C(F)F)c2c(=O)[nH]ncc21)N1CCN(c2ncc(C(F)(F)F)cn2)CC1 : reported IC50 = ?
Result: ≤ 100 nM

Problem: Entry O=C(CCCOCc1cccc2c(=O)[nH]ncc12)N1CCN(c2ncc(C(F)(F)F)cn2)CC1 : reported IC50 = ?
Result: ≤ 100 nM

###

subject.of.test: recombinant human Flag-tagged PARP7 (amino acids 456-657) (Homo sapiens, UniProt Q7Z3E1)
Construct: recombinant human Flag-tagged PARP7 (amino acids 456-657)
assay.protocol: PARP7 biochemical DELFIA assay (auto-MARylation)
assay.setup: DELFIA readout, IC50 class
IC50 values for the compounds below.

CCC(COCCC(=O)N1CCN(c2ncc(C(F)(F)F)cn2)CC1)n1nc(C(F)(F)F)c2c(=O)[nH]ncc21 (stereo not shown) [Compound 298] | ≤ 100 nM
CC(COCCC(=O)N1CCN(c2cnc(C(F)(F)F)cn2)CC1)n1nc(C(F)(F)F)c2c(=O)[nH]ncc21 (stereo not shown) [Compound 267] | ≤ 100 nM
O=C(CCOCCn1nc(C(F)(F)F)c2c(=O)[nH]ncc21)N1CCN(C2CN(CC(F)(F)F)C2)CC1 [Compound 433] | 1000 to 10000 nM
CC(COCCC(=O)N1CCN(c2ncc(C(C)(F)F)cn2)CC1)n1cc(C(F)(F)F)c2c(=O)[nH]ncc21 (single isomer, unassigned) [Compound 482] | ≤ 100 nM

Problem: Entry CC(COCCn1cc(C(F)(F)F)c2c(=O)[nH]ncc21)C(=O)N1CCN(c2ncc(C(F)(F)F)cn2)CC1 (stereo not shown) [Compound 412] : reported IC50 = ?
Result: ≤ 100 nM

###

pIC50 values for the molecules below.
subject.of.test: recombinant human Flag-tagged PARP7 (amino acids 456-657) (Homo sapiens, UniProt Q7Z3E1)
Construct: recombinant human Flag-tagged PARP7 (amino acids 456-657)
Sequence (Q7Z3E1 456-657): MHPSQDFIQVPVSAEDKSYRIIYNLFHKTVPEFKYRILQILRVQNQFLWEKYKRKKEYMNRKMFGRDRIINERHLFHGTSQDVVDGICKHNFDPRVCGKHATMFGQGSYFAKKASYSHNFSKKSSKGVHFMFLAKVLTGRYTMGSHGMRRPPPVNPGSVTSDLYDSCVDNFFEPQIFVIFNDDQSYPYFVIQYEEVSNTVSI
assay.protocol: PARP7 biochemical DELFIA assay (auto-MARylation)
assay.setup: DELFIA readout, IC50 class
pIC50: −log10 of the molar value.

Would you please look over these solved cases?
O=C(CCNCCN1CCCc2c1cn[nH]c2=O)N1CCN(c2ncc(C(F)(F)F)cn2)CC1 | 6.00 to 7.00
Cc1ccc(N2CCN(C(=O)CCOCC(C)n3nc(C(F)(F)F)c4c(=O)[nH]ncc43)CC2)nc1 (stereo not shown) | ≥ 7.00
CC(COCCC(=O)N1CCN(c2ccc(C#N)cn2)CC1)n1nc(C(F)F)c2c(=O)[nH]ncc21 (single isomer, unassigned) [Compound 437] | ≥ 7.00

Here is another molecule to look at.
Problem: Entry O=C(OCCCCc1cccc2c(=O)[nH]ncc12)N1CCN(c2ncc(C(F)(F)F)cn2)CC1 : reported pIC50 = ?
Result: ≥ 7.00

Attribution: patent US20240217968A1
